- tgt: human ether-à-go-go-related gene (hERG) potassium channel (human)
- Sequence (Q12809 whole entry, looked up): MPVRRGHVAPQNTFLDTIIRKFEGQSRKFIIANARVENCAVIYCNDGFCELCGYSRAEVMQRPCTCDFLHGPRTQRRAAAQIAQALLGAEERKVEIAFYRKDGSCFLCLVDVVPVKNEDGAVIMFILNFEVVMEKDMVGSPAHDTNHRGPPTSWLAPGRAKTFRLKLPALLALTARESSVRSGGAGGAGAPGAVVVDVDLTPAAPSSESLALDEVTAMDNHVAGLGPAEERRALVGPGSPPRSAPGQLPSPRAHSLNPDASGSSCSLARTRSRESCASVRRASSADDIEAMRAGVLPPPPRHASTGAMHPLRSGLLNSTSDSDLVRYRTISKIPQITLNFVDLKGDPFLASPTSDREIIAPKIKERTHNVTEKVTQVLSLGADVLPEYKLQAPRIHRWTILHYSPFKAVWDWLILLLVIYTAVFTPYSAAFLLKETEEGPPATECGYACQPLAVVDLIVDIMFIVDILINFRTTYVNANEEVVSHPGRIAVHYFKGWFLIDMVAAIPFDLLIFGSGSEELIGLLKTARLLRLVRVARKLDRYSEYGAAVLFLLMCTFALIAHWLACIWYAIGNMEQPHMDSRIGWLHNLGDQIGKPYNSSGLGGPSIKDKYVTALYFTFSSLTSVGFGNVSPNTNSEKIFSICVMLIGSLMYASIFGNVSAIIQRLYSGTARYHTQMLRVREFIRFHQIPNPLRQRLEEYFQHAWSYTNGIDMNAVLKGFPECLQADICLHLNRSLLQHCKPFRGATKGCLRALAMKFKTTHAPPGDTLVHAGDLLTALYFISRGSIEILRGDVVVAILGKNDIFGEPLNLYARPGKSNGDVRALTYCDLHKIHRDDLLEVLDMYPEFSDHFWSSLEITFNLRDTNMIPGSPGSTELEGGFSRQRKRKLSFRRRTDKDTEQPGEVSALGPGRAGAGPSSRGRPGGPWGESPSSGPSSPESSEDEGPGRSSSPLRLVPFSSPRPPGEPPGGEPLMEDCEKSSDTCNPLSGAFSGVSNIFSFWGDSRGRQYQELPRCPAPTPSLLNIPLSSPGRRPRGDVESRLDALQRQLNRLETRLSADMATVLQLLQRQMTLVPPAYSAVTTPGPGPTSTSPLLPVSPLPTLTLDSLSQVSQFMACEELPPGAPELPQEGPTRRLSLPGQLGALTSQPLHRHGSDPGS
- measurement-notes: primary screen, population patch clamp on CHO cells stably expressing hERG; higher = less effect of the substance;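 also: peak tail current of the secondary pulse compared with the same well before compound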
In all, about 310,000 compounds went through this assay and about 14,000 (4.5%) showed an effect of 50% or more. The effect is printed as a negative number. Many of the other results were omitted from the sample, so strong results are more common in it than they were.
metric: hERG current change (%, negative = inhibition) at 10uM (%)

compound="COc1ccc(C(c2nnnn2C2CCCCC2)N2CCN(C)CC2)c(OC)c1 (stereo not drawn)" tgt="human ether-à-go-go-related gene (hERG) potassium channel (human)" value_measured=-4.87
compound="COc1cc(NS(=O)(=O)c2ccc(NC(=O)C3CCCO3)cc2)nc(OC)n1 (stereo not drawn)" tgt="human ether-à-go-go-related gene (hERG) potassium channel (human)" value_measured=6.87
compound=O=C(CCCCCN1C(=O)c2cccc3cccc(c23)C1=O)NCc1ccco1 tgt="human ether-à-go-go-related gene (hERG) potassium channel (human)" value_measured=13.2
compound=CC(C)=CC(=O)N1CC[C@@H](N2CCN(c3ccccc3F)CC2)[C@H](O)C1 tgt="human ether-à-go-go-related gene (hERG) potassium channel (human)" value_measured=1.23
compound=O=C(CSc1n[nH]c(=O)n1-c1cccnc1)N1CCOCC1 tgt="human ether-à-go-go-related gene (hERG) potassium channel (human)" value_measured=12
compound=O=C(c1ccc(C(=O)N2CCCc3ccccc32)nc1)N1CCCc2ccccc21 tgt="human ether-à-go-go-related gene (hERG) potassium channel (human)" value_measured=-9.08
compound=COc1ccc(CN2CCN(C(=O)CC(C)C)CC2)cc1Br tgt="human ether-à-go-go-related gene (hERG) potassium channel (human)" value_measured=-4.54
compound="CC(C)CCN1CCN(Cc2cccc(-n3cccn3)c2)CC1CCO (stereo not drawn)" tgt="human ether-à-go-go-related gene (hERG) potassium channel (human)" value_measured=-57.6
compound=C=CCNC(=O)CCCc1ccccc1 tgt="human ether-à-go-go-related gene (hERG) potassium channel (human)" value_measured=7.65
compound=Cc1ccc(S(=O)(=O)N2CCN(C)CC2)c2nsnc12 tgt="human ether-à-go-go-related gene (hERG) potassium channel (human)" value_measured=24.1
compound=Fc1ccc(NC(=S)Nc2cccnc2)c(F)c1F tgt="human ether-à-go-go-related gene (hERG) potassium channel (human)" value_measured=20.1
compound=O=C(COC(=O)CCSc1ccccc1)NCc1ccccc1Cl tgt="human ether-à-go-go-related gene (hERG) potassium channel (human)" value_measured=22.4
compound=C/C(=N\NC(=O)c1cc(O)cc(O)c1)c1ccc(NC(=O)Cc2ccccc2)cc1 tgt="human ether-à-go-go-related gene (hERG) potassium channel (human)" value_measured=14.2
compound=Cc1ccccc1-n1nc(C(=O)c2cccs2)cc(-c2nc3ccccc3[nH]2)c1=N tgt="human ether-à-go-go-related gene (hERG) potassium channel (human)" value_measured=-1.9
compound=O=C1CN(C(=O)CSc2nnc(Nc3ccccc3)s2)c2ccccc2N1 tgt="human ether-à-go-go-related gene (hERG) potassium channel (human)" value_measured=0.255
compound=Nc1nnc(Cc2cccc(Br)c2)s1 tgt="human ether-à-go-go-related gene (hERG) potassium channel (human)" value_measured=3.51
compound="CCC1Oc2ccc(C)cc2N(CC(=O)NCCCN2CCCCC2C)C1=O (stereo not drawn)" tgt="human ether-à-go-go-related gene (hERG) potassium channel (human)" value_measured=3.15
compound=O=C(NCCN1CCOCC1)c1ccc2c(c1)N(Cc1ccc(F)cc1)C(=O)c1ccccc1S2(=O)=O tgt="human ether-à-go-go-related gene (hERG) potassium channel (human)" value_measured=0.647
compound=O=c1cc(CSc2nnc(-c3cccnc3)n2-c2ccccc2F)nc2sccn12 tgt="human ether-à-go-go-related gene (hERG) potassium channel (human)" value_measured=-4.15
compound=Cc1nnc2sc(-c3ccc(-c4ccc(Cl)c(C(F)(F)F)c4)o3)nn12 tgt="human ether-à-go-go-related gene (hERG) potassium channel (human)" value_measured=3.66
compound=CSCCCN1CC[C@@H](N2CCN(c3ccccc3F)CC2)[C@H](O)C1 tgt="human ether-à-go-go-related gene (hERG) potassium channel (human)" value_measured=-36.8
